The values you see were collected from paper PMC5430869.

Assayed Target: T1, CadC1-159 WT (Escherichia coli, UniProt P23890 1-159)
T1 sequence: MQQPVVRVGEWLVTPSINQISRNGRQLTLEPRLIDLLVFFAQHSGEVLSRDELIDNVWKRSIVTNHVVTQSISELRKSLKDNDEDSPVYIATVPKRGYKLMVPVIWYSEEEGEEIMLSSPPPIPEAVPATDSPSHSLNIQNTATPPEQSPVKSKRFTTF
Assay Name: SPR; steady state; EMSA/NMR/ITC: 20 mM BisTris, 150 mM NaCl, pH 6.5, RT (NMR 10% D2O, 298 K; imino spectra 283 K); SPR: 10 mM HEPES pH 7.4, 150 mM NaCl, 3 mM EDTA, 0.05% P20, 25 C
Test Conditions: protein: recombinant; tags: His6-thioredoxin removed by TEV; blunt
Value Type: Kd (nM)
Your answer is read as nM, so omit the unit and give the number.

Data request: Dear colleague, I am looking for the recorded Kd of the following binder: Cad1 41-mer, biotinylated (SPR) (dsDNA) DNA 1: TTGTAAACATTAAATGTTTATCTTTTCATGATATCAACTTG DNA 2: CAAGTTGATATCATGAAAAGATAAACATTTAATGTTTACAA
Data returned: 380
